Where do these numbers come from? They come from patent US8119614B2.

test system: HOS; experiment: In vitro cytotoxic activity, Calcein AM assay, HOS; assay type: cell-based; settings: 72 hours
pIC50: −log10 of the molar value.
parameter_measured: pIC50

Ask: I have this compound here, OC[C@H]1O[C@@H](n2cnc3c(NCc4ccccc4O)ncnc32)[C@H](O)[C@@H]1O [2-hydroxybenzylamino, 6-(2-hydroxybenzylamino)purine riboside] , and I need its recorded pIC50.
Result: 5.55

Ask: Field entry: OC[C@H]1O[C@@H](n2cnc3c(NCc4cccc(Br)c4)ncnc32)[C@H](O)[C@@H]1O [3-bromobenzylamino, 6-(3-bromobenzylamino)purine riboside]
Result: < 3.78

Ask: Field entry: Nc1nc(NCc2cccc(Cl)c2)c2ncn([C@@H]3O[C@H](CO)[C@@H](O)[C@H]3O)c2n1 [R2 = NH2,3-chlorobenzylamino]
Result: < 3.78

----------
system: Amaranthus caudatus cotyledon/hypocotyl explants; assay: Amaranthus bioassay (betacyanin content); type: in vivo; conditions: at concentration with highest activity
So I've got a bunch of compounds here, and I need their Activity (%) [10^−5 mol · l^−1 BAP = 100%] values.
Returns: string containing the number followed by the unit.

Ask: I have this compound here, OC[C@H]1O[C@@H](n2cnc3c(NCc4cc(F)cc(F)c4)ncnc32)[C@H](O)[C@@H]1O , and I need its recorded Activity (%) [10^−5 mol · l^−1 BAP = 100%].
Result: 88 ± 1%

Ask: Field entry: OC[C@H]1O[C@@H](n2cnc3c(NCc4ccccc4Br)ncnc32)[C@H](O)[C@@H]1O [2-bromobenzylamino, 6-(2-bromobenzylamino)purine riboside]
Result: 147 ± 7%

Ask: Field entry: OC[C@H]1O[C@@H](n2cnc3c(NCc4ccc(Cl)cc4Cl)ncnc32)[C@H](O)[C@@H]1O
Result: 3 ± 2%

Ask: Field entry: OC[C@H]1O[C@@H](n2cnc3c(NCc4ccc(F)cc4)ncnc32)[C@H](O)[C@@H]1O [4-fluorobenzylamino, 6-(4-fluorobenzylamino)purine riboside]
Result: 71 ± 4%

Ask: Field entry: OC[C@H]1O[C@@H](n2cnc3c(NCc4ccccc4F)ncnc32)[C@H](O)[C@@H]1O [2-fluorobenzylamino, 6-(2-fluorobenzylamino)purine riboside]
Result: 96 ± 2%

Ask: Field entry: COc1ccc(CNc2ncnc3c2ncn3[C@@H]2O[C@H](CO)[C@@H](O)[C@H]2O)cc1OC
Result: 2 ± 1%

----------
test system: Amaranthus caudatus cotyledon/hypocotyl explants; test: Amaranthus bioassay (betacyanin content); assay type: in vivo; conditions: at concentration with highest activity
So I've got a bunch of compounds here, and I need their Activity (%) [10^−5 mol · l^−1 BAP = 100%] values.
Write it as a number; the unit % goes unstated.

Ask: I have this compound here, Cc1ccccc1CNc1ncnc2c1ncn2[C@@H]1O[C@H](CO)[C@@H](O)[C@H]1O [2-methylbenzylamino, 6-(2-methylbenzylamino)purine riboside] , and I need its recorded Activity (%) [10^−5 mol · l^−1 BAP = 100%].
Result: 105

Ask: Field entry: OC[C@H]1O[C@@H](n2cnc3c(NCc4cccc(I)c4)ncnc32)[C@H](O)[C@@H]1O [3-jodobenzylamino, 6-(3-iodobenzylamino)purine riboside]
Result: 102

Ask: Field entry: Cc1cccc(CNc2ncnc3c2ncn3[C@@H]2O[C@H](CO)[C@@H](O)[C@H]2O)c1 [3-methylbenzylamino, 6-(3-methylbenzylamino)purine riboside]
Result: 103

Ask: Field entry: COc1ccc(CNc2ncnc3c2ncn3[C@@H]2O[C@H](CO)[C@@H](O)[C@H]2O)c(OC)c1
Result: 3

Ask: Field entry: OC[C@H]1O[C@@H](n2cnc3c(NCc4cc(F)c(F)cc4F)ncnc32)[C@H](O)[C@@H]1O
Result: 120

Ask: Field entry: COc1cccc(CNc2ncnc3c2ncn3[C@@H]2O[C@H](CO)[C@@H](O)[C@H]2O)c1OC
Result: 21

----------
So I've got a bunch of molecules here, and I need their pIC50 values.
system: HOS; assay: In vitro cytotoxic activity, Calcein AM assay, HOS; format: cell-based; settings: 72 hours
pIC50: −log10 of the molar value.

Ask: I have this molecule here, OC[C@H]1O[C@@H](n2cnc3c(NCc4cccc(O)c4)ncnc32)[C@H](O)[C@@H]1O [3-hydroxybenzylamino, 6-(3-hydroxybenzylamino)purine riboside] , and I need its recorded pIC50.
Result: < 3.78

Ask: Field entry: COc1cc(CNc2ncnc3c2ncn3[C@@H]2O[C@H](CO)[C@@H](O)[C@H]2O)cc(OC)c1 [3,5-dimethoxyxybenzylamino]
Result: < 3.78

Ask: Field entry: OC[C@H]1O[C@@H](n2cnc3c(NCc4c(F)ccc(F)c4F)ncnc32)[C@H](O)[C@@H]1O [2,3,6-trifluorobenzylamino]
Result: < 3.78

----------
So I've got a bunch of compounds here, and I need their IC50 values.
Test system: human erythroleukaemia K562
Assay: In vitro cytotoxic activity, Calcein AM assay, K-562
Type: cell-based
Settings: 72 hours, read-out: IC 50 K-562
Text: One of the parameters used, as the basis for cytotoxicity assays, is the metabolic activity of viable cells. For example, a microtiter assay, which uses the Calcein AM, is now widely used to quantitate cell proliferation and cytotoxicity. For instance, this assay is used in drug screening programs and in chemosensitivity testing. […] The quantity of reduced Calcein AM corresponds to the number of vital cells in the culture. […]
Write it as a number; the unit µM goes unstated.

Ask: Recorded IC50 for OC[C@H]1O[C@@H](n2cnc3c(NCc4ccc(F)cc4Cl)ncnc32)[C@H](O)[C@@H]1O [2-chloro-4-fluorobenzylamino] with human erythroleukaemia K562, please?
Result: 11.7

Ask: Field entry: OC[C@H]1O[C@@H](n2cnc3c(NCc4cccc(Cl)c4O)nc(Cl)nc32)[C@H](O)[C@@H]1O [R2 = Cl, 2-hydroxy-3-chlorobenzylamino]
Result: 10

Ask: Field entry: COc1ccccc1CNc1nc(SC)nc2c1ncn2[C@@H]1O[C@H](CO)[C@@H](O)[C@H]1O [R2 = SCH3,2-methoxyxybenzylamino]
Result: 34.8

Ask: Field entry: Nc1nc(NCc2cccc(Cl)c2)c2ncn([C@@H]3O[C@H](CO)[C@@H](O)[C@H]3O)c2n1 [R2 = NH2,3-chlorobenzylamino]
Result: 43

----------
So I've got a bunch of compounds here, and I need their IC50 values.
test system: human erythroleukaemia K562; test: In vitro cytotoxic activity, Calcein AM assay, K-562; assay type: cell-based; conditions: 72 hours, read-out: IC 50 K-562

Ask: Recorded IC50 for OC[C@H]1O[C@@H](n2cnc3c(NCc4cccc(Cl)c4)ncnc32)[C@H](O)[C@@H]1O [3-chlorobenzylamino, 6-(3-chlorobenzylamino)purine riboside] with human erythroleukaemia K562, please?
Result: 30.4 µM

Ask: Field entry: CSc1nc(NCc2cccc(Cl)c2)c2ncn([C@@H]3O[C@H](CO)[C@@H](O)[C@H]3O)c2n1 [R2 = SCH3,3-chlorobenzylamino]
Result: 35 µM

Ask: Field entry: OC[C@H]1O[C@@H](n2cnc3c(NCc4ccc(Br)cc4)ncnc32)[C@H](O)[C@@H]1O [4-bromobenzylamino, 6-(4-bromobenzylamino)purine riboside]
Result: 68.2 µM

Ask: Field entry: Nc1nc(NCc2ccccc2Cl)c2ncn(C3OC(CO)C(O)C3O)c2n1 (stereo not drawn) [R2 = NH2,2-chlorobenzylamino]
Result: 78 µM

Ask: Field entry: OC[C@H]1O[C@@H](n2cnc3c(NCc4ccc(F)cc4)nc(Cl)nc32)[C@H](O)[C@@H]1O [R2 = Cl, 4-fluorobenzylamino]
Result: 5.8 µM

Ask: Field entry: OC[C@H]1O[C@@H](n2cnc3c(NCc4ccc(Cl)c(Cl)c4)ncnc32)[C@H](O)[C@@H]1O [3,4-dichlorobenzylamino]
Result: 6.5 µM

----------
So I've got a bunch of molecules here, and I need their pIC50 values.
system: HOS; assay: In vitro cytotoxic activity, Calcein AM assay, HOS; assay type: cell-based; conditions: 72 hours
pIC50: −log10 of the molar value.

Ask: Recorded pIC50 for OC[C@H]1O[C@@H](n2cnc3c(NCc4ccc(Cl)cc4Cl)ncnc32)[C@H](O)[C@@H]1O with HOS, please?
Result: < 3.78

Ask: Field entry: OC[C@H]1O[C@@H](n2cnc3c(NCc4cccc(F)c4)ncnc32)[C@H](O)[C@@H]1O [3-fluorobenzylamino, 6-(3-fluorobenzylamino)purine riboside]
Result: < 3.78

Ask: Field entry: OC[C@H]1O[C@@H](n2cnc3c(NCc4ccccc4Br)ncnc32)[C@H](O)[C@@H]1O [2-bromobenzylamino, 6-(2-bromobenzylamino)purine riboside]
Result: < 3.78

Ask: Field entry: OC[C@H]1O[C@@H](n2cnc3c(NCc4ccccc4O)nc(Cl)nc32)[C@H](O)[C@@H]1O [R2 = Cl, 2-hydroxybenzylamino]
Result: 5.60

Ask: Field entry: COc1ccc(CNc2nc(Cl)nc3c2ncn3[C@@H]2O[C@H](CO)[C@@H](O)[C@H]2O)cc1
Result: < 3.78

Ask: Field entry: OC[C@H]1O[C@@H](n2cnc3c(NCc4cccc(Cl)c4O)ncnc32)[C@H](O)[C@@H]1O [2-hydroxy-3-chlorobenzylamino]
Result: < 3.78

Ask: Field entry: OC[C@H]1O[C@@H](n2cnc3c(NCc4ccc(Cl)cc4)ncnc32)[C@H](O)[C@@H]1O [4-chlorobenzylamino, 6-(4-chlorobenzylamino)purine riboside]
Result: < 3.78

Ask: Field entry: COc1ccccc1CNc1nc(N)nc2c1ncn2[C@@H]1O[C@H](CO)[C@@H](O)[C@H]1O
Result: 4.56

Ask: Field entry: OC[C@H]1O[C@@H](n2cnc3c(NCc4ccc(F)c(F)c4F)ncnc32)[C@H](O)[C@@H]1O
Result: < 3.78

Ask: Field entry: COc1ccccc1CNc1ncnc2c1ncn2[C@@H]1O[C@H](CO)[C@@H](O)[C@H]1O [2-methoxybenzylamino, 6-(2-methoxybenzylamino)purine riboside]
Result: 4.67

Ask: Field entry: OC[C@H]1O[C@@H](n2cnc3c(NCc4ccc(F)c(Cl)c4)ncnc32)[C@H](O)[C@@H]1O
Result: < 3.78

Ask: Field entry: COc1ccccc1CNc1nc(SC)nc2c1ncn2[C@@H]1O[C@H](CO)[C@@H](O)[C@H]1O
Result: 4.46

Ask: Field entry: COc1cccc(CNc2nc(Cl)nc3c2ncn3[C@@H]2O[C@H](CO)[C@@H](O)[C@H]2O)c1
Result: < 3.78

Ask: Field entry: CSc1nc(NCc2cccc(Cl)c2)c2ncn([C@@H]3O[C@H](CO)[C@@H](O)[C@H]3O)c2n1
Result: < 3.78

Ask: Field entry: COc1ccc(CNc2ncnc3c2ncn3[C@@H]2O[C@H](CO)[C@@H](O)[C@H]2O)c(OC)c1
Result: < 3.78

Ask: Field entry: CSc1nc(NCc2ccccc2Cl)c2ncn([C@@H]3O[C@H](CO)[C@@H](O)[C@H]3O)c2n1
Result: < 3.78

Ask: Field entry: COc1ccc(O)c(CNc2ncnc3c2ncn3[C@@H]2O[C@H](CO)[C@@H](O)[C@H]2O)c1 [2-hydroxy-5-methoxybenzylamino]
Result: < 3.78

Ask: Field entry: OC[C@H]1O[C@@H](n2cnc3c(NCc4ccc(F)cc4)nc(Cl)nc32)[C@H](O)[C@@H]1O
Result: 4.72

Ask: Field entry: Cc1cccc(CNc2ncnc3c2ncn3[C@@H]2O[C@H](CO)[C@@H](O)[C@H]2O)c1 [3-methylbenzylamino, 6-(3-methylbenzylamino)purine riboside]
Result: < 3.78

Ask: Field entry: Nc1nc(NCc2ccccc2Cl)c2ncn(C3OC(CO)C(O)C3O)c2n1 (stereo not drawn)
Result: < 3.78

Ask: Field entry: Cc1ccc(CNc2ncnc3c2ncn3[C@@H]2O[C@H](CO)[C@@H](O)[C@H]2O)cc1 [4-methylbenzylamino, 6-(4-methylbenzylamino)purine riboside]
Result: < 3.78

Ask: Field entry: OC[C@H]1O[C@@H](n2cnc3c(NCc4ccccc4F)ncnc32)[C@H](O)[C@@H]1O [2-fluorobenzylamino, 6-(2-fluorobenzylamino)purine riboside]
Result: < 3.78

Ask: Field entry: OC[C@H]1O[C@@H](n2cnc3c(NCc4ccc(O)cc4)ncnc32)[C@H](O)[C@@H]1O [4-hydroxybenzylamino, 6-(4-hydroxybenzylamino)purine riboside]
Result: < 3.78

Ask: Field entry: COc1ccc(CNc2ncnc3c2ncn3[C@@H]2O[C@H](CO)[C@@H](O)[C@H]2O)cc1 [4-methoxybenzylamino, 6-(4-methoxybenzylamino)purine riboside]
Result: < 3.78
